# System: 3D7-MR4 trophozoite parasite-infected RBCs
# ASSAY_NOTES: Metabolomic profiling (hydrophilic metabolite changes, UHPLC-MS)
# Assay type: cell-based, Plasmodium falciparum
# COND: metabolite N-acetyl-L-ornithine
Classify by Log2(fold change) N-acetyl-L-ornithine. Ranges: zone 1 = under -0.6, zone 2 = from -0.6 up to -0.02, zone 3 = -0.02 and over

Some solved cases for reference:
CCN(CC)CCn1c(=N)n(CC(O)c2ccc(Cl)c(Cl)c2)c2ccccc21.Cl (centres unmarked) | zone 1
CC(C)(C)OC(=O)N1CCN(c2ccccc2NC(=O)c2cccc(C(F)(F)F)c2Oc2ccc(F)cc2)CC1 | zone 3
Clc1ccc2c(N3CCN(CCCN4CCN(c5ccnc6cc(Cl)ccc56)CC4)CC3)ccnc2c1 [Piperaquine, reference compound] | zone 3
OC(c1cc(C(F)(F)F)nc2c(C(F)(F)F)cccc12)C1CCCCN1 (centres unmarked) [Mefloquine, reference compound] | zone 2
CC(C)C[C@@H](/C=C/S(C)(=O)=O)NC(=O)[C@H](CC(C)C)NC(=O)[C@H](Cc1c[nH]c2ccccc12)NC(=O)CN1CCOCC1 [WLL-vs, reference compound] | zone 3

Q) Form: Item = O=C1C(O)=C([C@H]2CC[C@H](c3ccc(Cl)cc3)CC2)C(=O)c2ccccc21 [Atovaquone, reference compound] ; Class = ?
A) zone 3

Q) Lookup O=C(Nc1ccsc1C(=O)NC1CCCCC1)c1ccc(F)cc1
A) zone 1

Q) Lookup CC(C)(C)NCc1cc(Nc2ccnc3cc(Cl)ccc23)c2c(c1O)CCCC2 [Naphtoquine, Naphthoquine, reference compound]
A) zone 2

Q) Lookup CN(C)Cc1ccc(-c2cc3c(-c4ccc(CN(C)C)cc4)ccnc3[nH]2)cc1.O=C(O)C(F)(F)F
A) zone 3

Q) Lookup CN(C)c1ccc2nc3ccc(=[N+](C)C)cc-3sc2c1 [Methylene blue, reference compound]
A) zone 2

Q) Lookup CCCCN(CCCC)CC(O)c1cc(Cl)cc2c1-c1ccc(Cl)cc1/C2=C/c1ccc(Cl)cc1 (centres unmarked) [Lumefantrine, reference compound]
A) zone 1

Q) Lookup CC(C)(C)c1ccc2c(c1)CN(Cc1ccc(Cl)cc1)CO2
A) zone 1

Q) Lookup CCCOCc1cc(CN2CCN(c3cccc(Cl)c3)CC2)c(O)c2ncccc12
A) zone 2

Q) Lookup CNc1nc(NCCCN(C)C)c2sc(-c3cccc(C(F)(F)F)c3)cc2n1
A) zone 3

Q) Lookup O=C(Nc1ccc(N2CCNCC2)cc1)c1ccn2ncc(-c3cccc(Cl)c3)c2n1.O=C(O)C(F)(F)F
A) zone 1

Q) Lookup COc1ccc(C2c3ccc4ccccc4c3Oc3ncn(CCCN(C)C)c(=N)c32)cc1 (centres unmarked)
A) zone 2

Q) Lookup Cc1cc(Nc2ccc(OCc3ccccc3)cc2)nc2cc(O)ccc12
A) zone 1

src = paper PMC7031696
